Tested on: NCI-H23 lung
testName: NCI tumour cell line growth inhibition, 48 h
measurementLabel: TGI (µM)
# number only, unit µM dropped from output

molecule	experimentalSystem	TGI / µM
CCCCCCCCCCCCC1N=C(N)NC2(CCCO2)C1C(=O)OC (stereo not drawn)	NCI-H23 lung	18.2
CC(C)=CCc1c2c(c(O)c3c(=O)c4c(oc13)-c1ccc(O)cc1OC4C=C(C)C)C=CC(C)(C)O2 (stereo not drawn)	NCI-H23 lung	20.3
CCN(CC)CCOc1ccc2c(C)c(C(=O)OC)oc2c1C(=O)/C=C/c1ccc(OC)cc1	NCI-H23 lung	8.34
Cc1ccnc(Nc2ccc([N+](=O)[O-])c(NCCN3CCOCC3)n2)c1	NCI-H23 lung	40.8
COc1ccc(/C=N/NC(=S)Nc2cc(C)ccc2OC)cc1	NCI-H23 lung	73.8
N#CC(NC(=O)CCl)=C(Cl)Cl	NCI-H23 lung	3.56

The molecule CNCc1cccc2c1OCCOCCOCCC(C)S(=O)(=O)c1ccc(cc1)-c1cnc(N)c(n1)C(=O)N2 (stereo not drawn) showed TGI equal to 18.9

* * *

Tested on: SK-MEL-2 melanoma
testName: NCI tumour cell line growth inhibition, 48 h
measurementLabel: TGI

Example cases with answers are listed next.
compound	experimentalSystem	measuredResult
NC(N)=N/N=C/c1c(-c2ccc(Cl)c([N+](=O)[O-])c2)nc2sc3ccccc3n12	SK-MEL-2 melanoma	> 50 µM
OCC(O)C(O)C(O)C(O)c1nn[nH]n1 (centres undefined)	SK-MEL-2 melanoma	> 100 µM
O=C(C(=O)c1cc(Br)ccc1O)c1cc(Br)ccc1O	SK-MEL-2 melanoma	13.3 µM
O=C(CC1=Nc2nnc(-c3nnc4n3C(=O)C(CC(=O)C3CC3)=N4)n2C1=O)C1CC1	SK-MEL-2 melanoma	> 100 µM
COc1cc(N(CCC#N)CCC#N)ccc1/C(N=Nc1ccc(C(=O)O)cc1)=N/NC(=O)c1cc(Br)ccc1O	SK-MEL-2 melanoma	> 150 mg/L

The compound OCC#Cc1ccccc1C#Cc1ccc(C#Cc2ccccc2)cc1 showed TGI equal to > 100 µM

The compound COc1cc(/C=C\c2cc(OC)c(OC)c(OC)c2)cc(NS(=O)(=O)c2ccc(Cl)cc2)c1OC showed TGI equal to 50.7 µM

The compound CC1(Cl)CC(C)(/C=C/Cl)C(Cl)CC1Cl (centres undefined) showed TGI equal to 26.3 µM

The compound CC[C@]1(Cc2ccc(OC)c(OC)c2)C=[N+]([O-])O[C@H](OC2CCCC2(c2ccccc2)c2ccccc2)[C@@H]1OC(=O)C(C)(C)C (some centres undefined) showed TGI equal to 7.66 µM

The compound O=C1C=C/C(=C/[C@H]2SSC=C[C@]23C=CC(=O)C3)C1 showed TGI equal to > 76.2 µM

The compound C=CCNC1=C2C[C@@H](C)C[C@@H](OC)[C@H](OC(=O)CCN(C)C)[C@H](C)/C=C(\C)[C@@H](OC(N)=O)[C@H](OC)/C=C\C=C(/C)C(=O)NC(=CC1=O)C2=O showed TGI equal to 12.2 µM

* * *

System: DU-145 prostate
testName: NCI tumour cell line growth inhibition, 48 h
Parameter: TGI. Scope: all listed entries.
# number only, unit µM dropped from output

Example cases with answers are listed next.
structure	valueUnits	measuredResult
O=S(=O)(O)c1cc(O)c(N=Nc2ccc3ccccc3c2O)c2ccccc12	µM	31.6
CNCc1ccc(-c2[nH]c3cc(F)cc4c3c2CCNC4=O)cc1	µM	32.3
OCCCCC#Cc1ccccc1C#Cc1ccc(C(F)(F)F)cc1	µM	31.7
NC(N)=N/N=C(/c1ccccc1)c1ccccc1F	µM	16.6
COc1cc2c(cc1OCCCOc1ccc(-c3cc4ccccc4c4ccccc34)cc1)N=C[C@@H]1CCCN1C2=O	µM	1.42

The compound O=C1C=C/C(=C/[C@H]2SSC=C[C@]23C=CC(=O)C3)C1 showed TGI equal to 47.3

The compound COc1cc2cc3c(c(O)c2c(O)c1-c1c(OC)cc2cc4c(c(O)c2c1O)C(=O)O[C@H](C)C4)C(=O)O[C@H](C)C3 showed TGI equal to 31.2

The compound COc1ccc(/C=C\c2cc(OC)c(OC)c(OC)c2)c(NS(=O)(=O)c2ccc(C(C)(C)C)cc2)c1O showed TGI equal to 12.5

The compound O=c1[nH]c2ccc([N+](=O)[O-])c(Cl)c2c2ccccc12 showed TGI equal to 11.7

* * *

Tested on: DMS 114 small cell lung
testName: NCI tumour cell line growth inhibition, 48 h
Parameter: TGI. Scope: all listed entries.

Example cases with answers are listed next.
compound	TGI
C/C(CC(=O)Nc1cccc([N+](=O)[O-])c1)=N\NC(=O)C[n+]1ccccc1	> 100 µM
CC(=O)[C@]1(O)Cc2c(O)c3c(c(O)c2[C@@H](OC2CC(N)C(O)C(C)O2)C1)C(=O)c1c(OCc2ccccc2)cccc1C3=O (stereo not given in full)	2.55 µM
COC(=O)c1sc(=NC(=S)N2CCCCC2)sc1C(=O)OC	> 100 µM
CC(=O)OCC1OC(n2c(=S)n(-c3ccccc3)c(=O)c3cc(Br)cc(Br)c32)C(OC(C)=O)C(OC(C)=O)C1OC(C)=O (stereo not given)	> 100 µM

Item: OCC(O)C(O)C(O)C(O)c1nn[nH]n1 (stereo not given) | System: DMS 114 small cell lung | TGI: > 100 µM

Item: COC(=O)C1CCC(=O)N1/C(C)=N/NC(=O)Nc1ccc(Cl)c(Cl)c1 (stereo not given) | System: DMS 114 small cell lung | TGI: > 100 µM

Item: CC(C)=CCC/C(C)=C/C=C/C(C)=C/C1C[C@@]2(C(O)O1)[C@H](CCCO)/C(=C(/C)C=O)CC[C@]2(C)O (stereo not given in full) | System: DMS 114 small cell lung | TGI: 27.4 µM

Item: Cc1ccc(NCCN(C)C)c2c(=O)c3cc(O)ccc3sc12 | System: DMS 114 small cell lung | TGI: 28 µM

Item: CC1=CCN(c2ccccn2)OC1c1ccccc1 (stereo not given) | System: DMS 114 small cell lung | TGI: > 100 µM

Item: O=C(c1ccccc1)c1cc(Cl)ccc1NCn1nnc2ccccc21 | System: DMS 114 small cell lung | TGI: > 100 µM

* * *

Parameter: TGI. Scope: all listed entries.
Tested on: SF-539 CNS
testName: NCI tumour cell line growth inhibition, 48 h
# number only, unit µM dropped from output

Example cases with answers are listed next.
structure	TGI [µM]
CCOc1ccc(Nc2nc(-c3c(C)nc4ncccn34)cs2)cc1	0.0822
O=C(/C(=C/c1ccc(O)cc1)c1ccccc1)c1ccccc1	30.3

Now let's try a different one.
The molecule N#Cc1c(N)nc(Sc2ccccc2N)c(C#N)c1-c1ccccc1 showed TGI equal to 80.1

* * *

Tested on: SNB-19 CNS
testName: NCI tumour cell line growth inhibition, 48 h
measurementLabel: GI50

Example cases with answers are listed next.
compound	GI50
O=c1nc2[nH]c3c(-c4n[nH]c(=O)[nH]c4=O)cccc3c2n[nH]1	> 100 µM
N#CCC1(n2cc(-c3ncnc4[nH]ccc34)cn2)CN(C2CCN(C(=O)c3ccnc(C(F)(F)F)c3F)CC2)C1	> 100 µM
COc1ccc(OCC(O)CN2CCN(c3ccc(Cl)cc3)CC2)cc1 (centres undefined)	77.7 µM
CC1=C2[C@@H](CC1)[C@]1(C)O[C@@](C3CC3)(C[C@H]1OC(=O)CO)[C@H]2OC(=O)/C=C/c1ccccc1	17.6 µM
COc1ccc(Cc2nc3cc(OC)c(OC)cc3c(=O)[nH]2)cc1	7.23 µM
NC(=O)c1ncn(C2OC(CO)C(O)C2O)c1N (centres undefined)	> 100 µM

The compound CCCCC[C@@H](C/C=C/CCC(=O)NC/C(=C/Cl)[C@H]1C(=O)C(C)(C)C(=O)[C@@H](C)[C@@]1(C)O)OC showed GI50 equal to 20.3 µM

The compound COc1cc(/C=C\c2cc(OC)c(OC)c(OC)c2)cc(NS(=O)(=O)c2ccc(Cl)cc2)c1OC showed GI50 equal to 0.745 µM

The compound c1cncc(C2ONC3=NCCN32)c1 (centres undefined) showed GI50 equal to 69.7 µM

* * *

Parameter: TGI. Scope: all listed entries.
Tested on: 786-0 renal
testName: NCI tumour cell line growth inhibition, 48 h

Example cases with answers are listed next.
compound	experimentalSystem	measuredResult
CCOC(=O)C1CCC(=O)N1C(=O)c1ccc(Cl)cc1 (stereo not given)	786-0 renal	> 100 µM
C[C@]12CCC3=NCCN3C1=CC[C@@H]1[C@@H]2CC[C@@]2(C)[C@H]1CC[C@]2(C)O	786-0 renal	32.4 µM
C/C(CC(=O)Nc1cccc([N+](=O)[O-])c1)=N\NC(=O)C[n+]1ccccc1	786-0 renal	> 100 µM

The compound COC(=O)c1sc(=NC(=S)N2CCCCC2)sc1C(=O)OC showed TGI equal to > 100 µM

The compound CNCc1cccc2c1OCCOCCOCCC(C)S(=O)(=O)c1ccc(cc1)-c1cnc(N)c(n1)C(=O)N2 (stereo not given) showed TGI equal to 2.06 µM

The compound CCOC(=O)c1cn(CC)c2ccc3c(c2c1=O)S(=O)(=O)C=C3 showed TGI equal to > 100 µM

The compound O=c1[nH]c2ccc([N+](=O)[O-])cc2nc1/C(=N/Nc1ccccc1)C(O)c1ccco1 (stereo not given) showed TGI equal to > 100 µM

The compound COc1cc2cc3c(c(O)c2c(O)c1-c1c(OC)cc2cc4c(c(O)c2c1O)C(=O)O[C@H](C)C4)C(=O)O[C@H](C)C3 showed TGI equal to 64.8 µM

The compound COc1ccc(C23OCC(Cc4cc(OC)c(OC)cc42)C3CO)cc1OC (stereo not given) showed TGI equal to > 100 µM

The compound COc1ccc(/C(CC2OC(=O)c3ccccc32)=N\NC(N)=O)cc1 (stereo not given) showed TGI equal to > 100 µM
